Tested on: Mus musculus
protocolNotes: Suppression of oxotremorine-induced tremor in ICR mouse at 20 mg/kg, ip pretreated for 1 hr followed by oxotremorine-challenge
Assay type: functional, organism-based
Parameters: dose 20 mg/kg
Activity calls are given as the source filed them. The calls are words filed in the database; no cut-off is given here. Square brackets hold non-standard residues; d marks the D form. Peptide text beside a SMILES is read from it. azaGly = NNC(=O)O; βAla = NCCC(=O)O
Respond only with the outcome that fits, drawn from TRUE = active, FALSE = inactive

Query block: Tell me the recorded outcome of this test for CC(C)C[C@H](NC(=O)[C@@H]1CCCN1)C(=O)NCC(N)=O (H-Pro-Leu-Gly-NH2) .
Result block: TRUE

Query block: # iterate: CC(C)C[C@H](NC(=O)[C@@H]1CCCN1)C(=O)NNC(N)=O (H-Pro-Leu-[azaGly]-NH2)
Result block: FALSE

Query block: Can you handle CC(C)C[C@H](NC(=O)C1CCCC1)C(=O)NCC(N)=O next?
Result block: FALSE

Query block: Input CNC(=O)CNC(=O)[C@H](CC(C)C)NC(=O)[C@@H]1CCCN1 (H-Pro-Leu-Gly-NHMe)
Result block: FALSE

Query block: What do you have for CC(C)C[C@H](NC(=O)[C@@H]1CCCN1)C(=O)N1CCC[C@H]1C(N)=O (H-Pro-Leu-Pro-NH2) ?
Result block: TRUE

Query block: Lookup CC(C)C[C@H](NC(=O)[C@@H]1CCCN1)C(=O)N1CCSC1C(N)=O (single isomer, unassigned; (-))
Result block: FALSE

Query block: Further, for CC(C)C[C@H](NC(=O)[C@H]1CSCN1)C(=O)NCC(N)=O ?
Result block: FALSE

Query block: What do you have for CC(C)C[C@H](NC(=O)[C@@H]1CCCN1)C(=O)N1CSC[C@@H]1C(N)=O ?
Result block: FALSE

Query block: Likewise for CC(=O)CNC(=O)[C@H](CC(C)C)NC(=O)[C@@H]1CCCN1 ?
Result block: FALSE

Query block: Item: CC(C)C[C@H](NC(=O)[C@@H]1CCCN1)C(=O)NCC#N
Result block: FALSE

Query block: Now consider CC(C)C[C@H](NC(=O)[C@@H]1CCCN1)C(=O)NCCC(N)=O (H-Pro-Leu-[βAla]-NH2) and answer again.
Result block: FALSE

Query block: Ok, now CC(C)C[C@H](NC(=O)[C@@H]1CCCN1)C(=O)N1CCSC1C(N)=O (stereo in doubt; 9)
Result block: FALSE
